Tested on: BT-549
Test: normalised response (% of control), CellTiter-Glo; higher = more viable cells (100 = DMSO, 0 = benzethonium chloride kill control)
Conditions: incubation time: 72 h
RECORDED_ENDPOINT: normalised response
Answer shape: numeric part, then the unit.

The following compounds have reported results that may help.
- COMPOUND: "C=C(c1ccc(C(=O)O)cc1)c1cc2c(cc1C)C(C)(C)CCC2(C)C [Bexarotene] (1 nM)"
  RESULT: "103%"
- COMPOUND: "C=C(c1ccc(C(=O)O)cc1)c1cc2c(cc1C)C(C)(C)CCC2(C)C [Bexarotene] (1000 nM)"
  RESULT: "102%"
- COMPOUND: "CC(C)Cn1cnc2c(N)nc3ccccc3c21 [Imiquimod] (0.25 nM)"
  RESULT: "99%"
- COMPOUND: "CCCCCCCCCCCCCCCCCCOP(=O)([O-])OC1CC[N+](C)(C)CC1 [Perifosine] (250 nM)"
  RESULT: "97%"
- COMPOUND: "CCC1(c2ccc(N)cc2)CCC(=O)NC1=O (configuration not stated) [Aminoglutethimide] (1000 nM)"
  RESULT: "94.7%"
- COMPOUND: "Cc1ccc(C(=O)Nc2ccc(CN3CCN(C)CC3)c(C(F)(F)F)c2)cc1C#Cc1cnc2cccnn12 [Ponatinib] (100 nM)"
  RESULT: "107%"
- COMPOUND: "COc1cc2ncnc(Nc3ccc(F)c(Cl)c3)c2cc1NC(=O)/C=C/CN1CCCCC1 [Dacomitinib] (0.1 nM)"
  RESULT: "102%"
- COMPOUND: "CN[C@@H]1C[C@H]2O[C@@](C)([C@@H]1OC)n1c3ccccc3c3c4c(c5c6ccccc6n2c5c31)C(=O)N[C@H]4O [UCN-01] (1 nM)"
  RESULT: "95.5%"

Below are 4 compounds. Give each one its normalised response.
1. C[C@@H](Oc1cc(-c2cnn(C3CCNCC3)c2)cnc1N)c1c(Cl)ccc(F)c1Cl [Crizotinib] (0.1 nM)
2. C[C@@H](Oc1cc(-c2cnn(C3CCNCC3)c2)cnc1N)c1c(Cl)ccc(F)c1Cl [Crizotinib] (100 nM)
3. CCCCCCCCCCCCCCCCCCOP(=O)([O-])OC1CC[N+](C)(C)CC1 [Perifosine] (0.25 nM)
4. CCC1=C[C@@H]2CN(C1)Cc1c([nH]c3ccccc13)[C@@](C(=O)OC)(c1cc3c(cc1OC)N(C)[C@H]1[C@@](O)(C(=O)OC)[C@H](OC(C)=O)[C@]4(CC)C=CCN5CC[C@]31[C@@H]54)C2 [Vinorelbine] (1000 nM)

1. 104%
2. 90.4%
3. 107%
4. 41.8%

Below are 6 compounds. Give each one its normalised response.
1. Cn1c(CCCC(=O)O)nc2cc(N(CCCl)CCCl)ccc21 [Bendamustine] (1000 nM)
2. O=C1CCC(N2C(=O)c3ccccc3C2=O)C(=O)N1 (configuration not stated) [Thalidomide] (1 nM)
3. Cc1ccc(C(=O)Nc2ccc(CN3CCN(C)CC3)c(C(F)(F)F)c2)cc1C#Cc1cnc2cccnn12 [Ponatinib] (0.1 nM)
4. C#Cc1cccc(Nc2ncnc3cc(OCCOC)c(OCCOC)cc23)c1 [Erlotinib] (10 nM)
5. N.N.[Cl][Pt][Cl] [Cisplatin] (0.1 nM)
6. Oc1nc(-c2ccc(C(F)(F)F)cc2)nc2c1CSCC2 [XAV-939] (1000 nM)

1: 92.4%; 2: 104%; 3: 109%; 4: 97.3%; 5: 106%; 6: 91.8%

Below are 2 compounds. Give each one its normalised response.
1. O=C1CCC(N2C(=O)c3ccccc3C2=O)C(=O)N1 (configuration not stated) [Thalidomide] (10 nM)
2. N#CCNC(=O)c1ccc(-c2ccnc(Nc3ccc(N4CCOCC4)cc3)n2)cc1 [Momelotinib] (10 nM)

99.7%
99.6%

Below are 2 compounds. Give each one its normalised response.
1. Cn1c(Nc2ccc(C(F)(F)F)cc2)nc2cc(Oc3ccnc(-c4ncc(C(F)(F)F)[nH]4)c3)ccc21 [RAF265] (100 nM)
2. COc1cc2nccc(Oc3ccc(NC(=O)C4(C(=O)Nc5ccc(F)cc5)CC4)cc3)c2cc1OC [Cabozantinib] (100 nM)

91.1%
96.5%
